For each entry below, report its inhibition at 100 µM value.
assay_system: β-D-galactosidase (bovine liver) (Bos taurus, UniProt Q58D55)
Sequence (Q58D55 28-653): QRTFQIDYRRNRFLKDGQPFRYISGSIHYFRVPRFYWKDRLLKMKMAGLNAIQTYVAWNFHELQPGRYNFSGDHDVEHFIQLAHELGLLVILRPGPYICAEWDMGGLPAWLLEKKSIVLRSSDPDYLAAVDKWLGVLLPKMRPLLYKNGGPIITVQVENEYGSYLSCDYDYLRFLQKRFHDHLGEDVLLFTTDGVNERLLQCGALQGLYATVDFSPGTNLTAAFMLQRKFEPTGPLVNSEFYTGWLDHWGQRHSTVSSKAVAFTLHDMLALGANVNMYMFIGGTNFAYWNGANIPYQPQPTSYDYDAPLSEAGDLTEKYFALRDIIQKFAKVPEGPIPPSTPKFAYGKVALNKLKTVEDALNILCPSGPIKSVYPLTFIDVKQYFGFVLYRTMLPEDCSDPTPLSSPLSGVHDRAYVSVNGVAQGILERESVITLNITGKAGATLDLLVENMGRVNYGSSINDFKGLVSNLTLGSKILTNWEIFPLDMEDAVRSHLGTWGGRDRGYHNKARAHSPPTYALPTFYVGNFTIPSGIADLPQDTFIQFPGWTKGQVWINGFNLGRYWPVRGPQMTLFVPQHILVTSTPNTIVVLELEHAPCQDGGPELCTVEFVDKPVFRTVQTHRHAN
assay: Glycosidase inhibition, Table 6 (Laboratory 1)
Type: biochemical
Protocol: […] Brush border membranes were prepared from the rat small intestine according to the method of Kessler et al., and were assayed at pH 6.8 for rat intestinal maltase using maltose. […] The absorbance at 505 nm was measured to determine the amount of the released D-glucose. Other glycosidase activities were determined using an appropriate para-nitrophenyl glycoside as substrate at the optimum pH of each enzyme. […] The released para-nitrophenol was measured spectrometrically at 400 nm. […]
Answers are plain numbers, in %.

molecule=CC1(C)O[C@H]2O[C@H]3[C@@H]([C@H]2O1)N(Cc1ccc(B2OC(C)(C)C(C)(C)O2)cc1)C[C@H]3O assay_system="β-D-galactosidase (bovine liver) (Bos taurus, UniProt Q58D55)" metric="inhibition at 100 µM" endpoint_result=22.3
molecule=CC1(C)O[C@H]2O[C@H]3[C@@H]([C@H]2O1)N(Cc1ccccc1)C[C@H]3O assay_system="β-D-galactosidase (bovine liver) (Bos taurus, UniProt Q58D55)" metric="inhibition at 100 µM" endpoint_result=26.1
molecule="N[C@@H](Cc1ccc(B(O)O)cc1)C(=O)O [BPA, 4-borono-L-phenylalanine, reference compound]" assay_system="β-D-galactosidase (bovine liver) (Bos taurus, UniProt Q58D55)" metric="inhibition at 100 µM" endpoint_result=10.9

Prompt: Sample OC[C@H](O)[C@@H]1[C@H](O)[C@H](O)CN1Cc1ccccc1 — what was its inhibition at 100 µM?
Completion: 0
